Entries and their fold lower kcat/Km (less efficiently activated) than methionine values follow.
- Study system: UniProt:P00959
- Sequence (P00959 1-548 limits assumed): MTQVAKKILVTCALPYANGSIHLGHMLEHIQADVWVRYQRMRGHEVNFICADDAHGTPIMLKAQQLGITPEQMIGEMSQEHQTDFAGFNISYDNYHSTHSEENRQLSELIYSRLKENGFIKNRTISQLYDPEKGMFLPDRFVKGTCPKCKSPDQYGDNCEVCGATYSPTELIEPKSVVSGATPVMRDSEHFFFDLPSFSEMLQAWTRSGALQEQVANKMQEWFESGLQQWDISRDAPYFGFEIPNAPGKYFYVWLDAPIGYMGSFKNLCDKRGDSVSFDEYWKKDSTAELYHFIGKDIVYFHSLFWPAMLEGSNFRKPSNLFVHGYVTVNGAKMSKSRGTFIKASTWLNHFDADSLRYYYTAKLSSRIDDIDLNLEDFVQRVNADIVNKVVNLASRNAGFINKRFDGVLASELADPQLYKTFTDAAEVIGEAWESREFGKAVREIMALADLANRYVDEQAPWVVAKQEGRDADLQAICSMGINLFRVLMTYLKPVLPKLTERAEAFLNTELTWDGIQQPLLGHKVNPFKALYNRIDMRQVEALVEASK
- Experimental details: ATP-PPi exchange assay: activation of methionine and methionine analogues by MetRS
- Format: biochemical, E. coli
- Parameters: The fully active, truncated form of methionyl tRNA synthetase (MetRS) was purified from overnight cultures of JM101 cells carrying the plasmid pGG3; made in house; host or cells: E. coli JM101 carrying plasmid pGG3
- Measurement parameters: relative to methionine
Use fold as the unit, but write only the number.

C#CCCC(N)C(=O)O (racemic)	500
C/C=C/CC(N)C(=O)O (racemic) [Analogue 5, trans-2-amino-4-hexenoic acid]	4700
CCCC[C@H](N)C(=O)O	1050

Consider the record given below.
Q: For C=CCCC(N)C(=O)O (racemic) , write its fold lower kcat/Km (less efficiently activated) than methionine.
Result: 1850
